Every entry's value here was drawn from patent US20260042834A1.

Molecular target: T1, CRH (NT Biotin) (human and mouse, not fully specified; biotin at the N-terminus)
T1 peptide: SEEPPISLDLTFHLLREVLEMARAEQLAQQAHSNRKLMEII
Assay: ELISA, biotin peptide on streptavidin plate
property-measured: EC50 (nM)
Your answer is read as nM, so omit the unit and give the number.

Here are 2 binders together with their reported answers.
{"binder": "PR302341-55 (antibody, human IgG1, kappa, V domains shown, Humanized, PTM-removed variant of PR302341) VH: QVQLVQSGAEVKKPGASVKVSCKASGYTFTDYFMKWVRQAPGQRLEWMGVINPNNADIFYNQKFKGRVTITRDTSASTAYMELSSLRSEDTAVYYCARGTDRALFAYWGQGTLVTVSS VL: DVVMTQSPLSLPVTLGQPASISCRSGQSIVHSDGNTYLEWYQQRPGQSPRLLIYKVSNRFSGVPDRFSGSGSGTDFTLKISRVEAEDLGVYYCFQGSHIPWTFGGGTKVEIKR", "EC50 (nM)": 0.022}
{"binder": "PR302309-8 (antibody, human IgG1, kappa, V domains shown, Humanized variant of PR302309) VH: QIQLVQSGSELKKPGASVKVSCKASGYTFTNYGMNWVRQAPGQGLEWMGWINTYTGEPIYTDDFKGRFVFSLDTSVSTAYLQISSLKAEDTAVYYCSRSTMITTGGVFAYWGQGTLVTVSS VL: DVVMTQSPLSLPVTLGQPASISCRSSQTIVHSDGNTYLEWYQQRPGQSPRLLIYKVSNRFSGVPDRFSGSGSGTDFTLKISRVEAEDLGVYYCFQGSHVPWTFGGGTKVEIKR", "EC50 (nM)": 0.025}

Prompt: Please look up its EC50: PR302341-28 (antibody, human IgG1, kappa, V domains shown, Humanized, PTM-removed variant of PR302341) VH: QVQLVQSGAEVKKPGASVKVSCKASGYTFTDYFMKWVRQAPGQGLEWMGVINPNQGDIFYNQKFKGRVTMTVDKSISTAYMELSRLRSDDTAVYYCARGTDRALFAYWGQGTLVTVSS VL: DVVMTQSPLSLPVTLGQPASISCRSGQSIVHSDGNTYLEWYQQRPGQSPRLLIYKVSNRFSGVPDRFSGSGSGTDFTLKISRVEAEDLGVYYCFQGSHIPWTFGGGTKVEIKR
Completion: 0.052
